Each entry below lists one item and its recorded selectivity ratio value.
Assay: Ratio of gemcitabine TC50 to test compound TC50 for cytotoxicity against human BXPC-3 cells assessed as reduction in cell viability
Type: cell-based
observation-type: selectivity ratio

>>> measured_value("O=C(Nc1ccn([C@@H]2O[C@H](CO)[C@@H](O)C2(F)F)c(=O)n1)c1ccc2c(c1)OCCO2")
"≤ 620"
>>> measured_value("COc1cc(C(=O)Nc2ccn([C@@H]3O[C@H](CO)[C@@H](O)C3(F)F)c(=O)n2)cc(OC)c1OC")
"≤ 620"
>>> measured_value("O=C(Nc1ccn([C@@H]2O[C@H](CO)[C@@H](O)C2(F)F)c(=O)n1)c1ccc2c(c1)OCO2")
"≤ 620"

----------
Assay: Cytotoxicity against human Huh-7 cells assessed as reduction in cell viability measured after 48 hrs by celltiter-glo assay
Type: cell-based
Settings: read-out: TC50
observation-type: CC50 at 48 h

>>> measured_value("COc1cccc(OC)c1C(=O)Nc1ccn([C@@H]2O[C@H](CO)[C@@H](O)C2(F)F)c(=O)n1")
"4580 µM"
>>> measured_value("O=C(Nc1ccn([C@@H]2O[C@H](CO)[C@@H](O)C2(F)F)c(=O)n1)c1cc(Cl)cc(Cl)c1")
"110 µM"
>>> measured_value("O=C(Nc1ccn([C@@H]2O[C@H](CO)[C@@H](O)C2(F)F)c(=O)n1)c1c(Br)ccc2c1OCO2")
"2210 µM"
>>> measured_value("O=C(Nc1ccn([C@@H]2O[C@H](CO)[C@@H](O)C2(F)F)c(=O)n1)c1ccc2c(c1)C(=O)c1ccccc1C2=O")
"249 µM"

----------
Test: Stability in pH 1 aqueous buffer assessed as parent compound remaining at 200 uM measured after 4 hrs by UV spectrophotometry
Format: physicochemical
Settings: read-out: Stabilty
Each entry below lists one item and its recorded remaining at 4 h, 200 µM value.
observation-type: remaining at 4 h, 200 µM (%)

>>> measured_value("O=C(Nc1ccn([C@@H]2O[C@H](CO)[C@@H](O)C2(F)F)c(=O)n1)c1ccc2c(c1)OCO2")
64
>>> measured_value("COc1cc(C(=O)Nc2ccn([C@@H]3O[C@H](CO)[C@@H](O)C3(F)F)c(=O)n2)cc(OC)c1OC")
86
>>> measured_value("O=C(Nc1ccn([C@@H]2O[C@H](CO)[C@@H](O)C2(F)F)c(=O)n1)c1ccc2c(c1)OCCO2")
71
>>> measured_value("Nc1ccn([C@@H]2O[C@H](CO)[C@@H](O)C2(F)F)c(=O)n1")
79
>>> measured_value("O=C(Nc1ccn([C@@H]2O[C@H](CO)[C@@H](O)C2(F)F)c(=O)n1)c1cc(Cl)cc(Cl)c1")
35

----------
Experiment: Cytotoxicity against human Huh-7 cells assessed as reduction in cell viability measured after 48 hrs by celltiter-glo assay
Type: cell-based
Conditions: read-out: TC50
Each entry below lists one item and its recorded CC50 at 48 h value.
observation-type: CC50 at 48 h (µM)

>>> measured_value("O=C(Nc1ccn([C@@H]2O[C@H](CO)[C@@H](O)C2(F)F)c(=O)n1)c1ccc(Cl)cc1")
138
>>> measured_value("COc1ccc(C(=O)Nc2ccn([C@@H]3O[C@H](CO)[C@@H](O)C3(F)F)c(=O)n2)cc1")
572

----------
Experiment: Cytotoxicity against human MCF7 cells assessed as reduction in cell viability measured after 96 hrs by celltiter-glo assay
Type: cell-based
Details: read-out: TC50
// classify: if (CC50 at 96 h < 600 nM) fulfilled else not fulfilled

>>> class_label("Nc1ccn([C@@H]2O[C@H](CO)[C@@H](O)C2(F)F)c(=O)n1")
"fulfilled"
>>> class_label("COc1cc(OC)cc(C(=O)Nc2ccn([C@@H]3O[C@H](CO)[C@@H](O)C3(F)F)c(=O)n2)c1")
"not fulfilled"
>>> class_label("COc1cc(C(=O)Nc2ccn([C@@H]3O[C@H](CO)[C@@H](O)C3(F)F)c(=O)n2)cc(OC)c1OC")
"fulfilled"
>>> class_label("O=C(Nc1ccn([C@@H]2O[C@H](CO)[C@@H](O)C2(F)F)c(=O)n1)c1cc(Cl)cc(Cl)c1")
"fulfilled"
>>> class_label("O=C(Nc1ccn([C@@H]2O[C@H](CO)[C@@H](O)C2(F)F)c(=O)n1)c1ccc2c(c1)OCCO2")
"not fulfilled"
>>> class_label("O=C(Nc1ccn([C@@H]2O[C@H](CO)[C@@H](O)C2(F)F)c(=O)n1)c1ccc2c(c1)OCO2")
"not fulfilled"

----------
Assay: Cytotoxicity against human Huh-7 cells assessed as reduction in cell viability measured after 48 hrs by celltiter-glo assay
Type: cell-based
Conditions: read-out: TC50
// classify: if (CC50 at 48 h < 300 µM) criterion met else criterion not met

>>> class_label("Cc1ccc(C(=O)Nc2ccn([C@@H]3O[C@H](CO)[C@@H](O)C3(F)F)c(=O)n2)cc1")
"criterion not met"
>>> class_label("COc1ccc2cc(C(=O)Nc3ccn([C@@H]4O[C@H](CO)[C@@H](O)C4(F)F)c(=O)n3)ccc2c1")
"criterion met"
>>> class_label("O=C(Nc1ccn([C@@H]2O[C@H](CO)[C@@H](O)C2(F)F)c(=O)n1)c1ccc2c(c1)OCCO2")
"criterion not met"
>>> class_label("O=C(Nc1ccn([C@@H]2O[C@H](CO)[C@@H](O)C2(F)F)c(=O)n1)c1cccc2c1CCCC2")
"criterion met"
>>> class_label("O=C(Nc1ccn([C@@H]2O[C@H](CO)[C@@H](O)C2(F)F)c(=O)n1)c1ccc2c(c1)OCO2")
"criterion not met"
>>> class_label("Cc1cc2c(cc1C(=O)Nc1ccn([C@@H]3O[C@H](CO)[C@@H](O)C3(F)F)c(=O)n1)OCCO2")
"criterion not met"
>>> class_label("O=C(Nc1ccn([C@@H]2O[C@H](CO)[C@@H](O)C2(F)F)c(=O)n1)c1ccc2c(c1)OCCCO2")
"criterion not met"

----------
Each entry below lists one item and its recorded remaining at 4 h, 200 µM value.
Assay: Stability in pH 8 aqueous buffer assessed as parent compound remaining at 200 uM measured after 4 hrs by UV spectrophotometry
Type: physicochemical
Settings: read-out: Stabilty
observation-type: remaining at 4 h, 200 µM (%)

>>> measured_value("Nc1ccn([C@@H]2O[C@H](CO)[C@@H](O)C2(F)F)c(=O)n1")
100
>>> measured_value("O=C(Nc1ccn([C@@H]2O[C@H](CO)[C@@H](O)C2(F)F)c(=O)n1)c1ccc2c(c1)OCO2")
92
>>> measured_value("O=C(Nc1ccn([C@@H]2O[C@H](CO)[C@@H](O)C2(F)F)c(=O)n1)c1ccc2c(c1)OCCO2")
100
>>> measured_value("O=C(Nc1ccn([C@@H]2O[C@H](CO)[C@@H](O)C2(F)F)c(=O)n1)c1cc(Cl)cc(Cl)c1")
35.4
>>> measured_value("COc1cc(C(=O)Nc2ccn([C@@H]3O[C@H](CO)[C@@H](O)C3(F)F)c(=O)n2)cc(OC)c1OC")
82.7

----------
Each entry below lists one item and its recorded CC50 at 96 h value.
Experiment: Toxicity in human Huh-7 cells assessed as reduction in cell viability measured after 96 hrs by celltiter-glo assay
Format: cell-based
Details: read-out: TC50
observation-type: CC50 at 96 h (µM)

>>> measured_value("COc1cc(C(=O)Nc2ccn([C@@H]3O[C@H](CO)[C@@H](O)C3(F)F)c(=O)n2)cc(OC)c1OC")
5.1
>>> measured_value("COc1cc(OC)cc(C(=O)Nc2ccn([C@@H]3O[C@H](CO)[C@@H](O)C3(F)F)c(=O)n2)c1")
18.5
>>> measured_value("O=C(Nc1ccn([C@@H]2O[C@H](CO)[C@@H](O)C2(F)F)c(=O)n1)c1ccc2c(c1)OCO2")
7
>>> measured_value("O=C(Nc1ccn([C@@H]2O[C@H](CO)[C@@H](O)C2(F)F)c(=O)n1)c1ccc2c(c1)OCCO2")
3.3
>>> measured_value("O=C(Nc1ccn([C@@H]2O[C@H](CO)[C@@H](O)C2(F)F)c(=O)n1)c1cc(Cl)cc(Cl)c1")
4.2
>>> measured_value("Nc1ccn([C@@H]2O[C@H](CO)[C@@H](O)C2(F)F)c(=O)n1 [GEMCITABINE]")
3.4

----------
Each entry below lists one item and its recorded remaining at 4 h, 200 µM value.
Test: Stability in pH 6 aqueous buffer assessed as parent compound remaining at 200 uM measured after 4 hrs by UV spectrophotometry
Assay type: physicochemical
Conditions: read-out: Stabilty
observation-type: remaining at 4 h, 200 µM (%)

>>> measured_value("Nc1ccn([C@@H]2O[C@H](CO)[C@@H](O)C2(F)F)c(=O)n1")
100
>>> measured_value("O=C(Nc1ccn([C@@H]2O[C@H](CO)[C@@H](O)C2(F)F)c(=O)n1)c1ccc2c(c1)OCCO2")
100
>>> measured_value("O=C(Nc1ccn([C@@H]2O[C@H](CO)[C@@H](O)C2(F)F)c(=O)n1)c1cc(Cl)cc(Cl)c1")
99.6
>>> measured_value("O=C(Nc1ccn([C@@H]2O[C@H](CO)[C@@H](O)C2(F)F)c(=O)n1)c1ccc2c(c1)OCO2")
100
>>> measured_value("COc1cc(C(=O)Nc2ccn([C@@H]3O[C@H](CO)[C@@H](O)C3(F)F)c(=O)n2)cc(OC)c1OC")
99.5
